Values from patent US20240368122A1

In this section we review reported pIC50 values for a set of molecules.
Test system: TF1 JAK2 V617F STAT5 reporter
Assay: Cellular TF1 STAT5 assay (luciferase reporter), JAK2 V617F
Type: cell-based
Conditions: TF1 JAK2 V617F, read-out: Cell PD TF1 V617F STAT5 (IC50)
pIC50: −log10 of the molar value.

// solved cases for pIC50 follow
molecule | pIC50
CNC(=O)c1nnc(NC(=O)C2CC2)cc1Nc1cccc(-c2cnc(C(=O)N(C)Cc3nn(C)cc3Br)nc2)c1OC | 6.30 to 7.30
CNC(=O)c1nnc(NC(=O)C2CC2)cc1Nc1cccc(-c2ccc(C(=O)N(C)Cc3cnsc3)nc2)c1OC | 5.30 to 6.30
CNC(=O)c1nnc(NC(=O)C2CC2)cc1Nc1ccc(C)c(-c2cnc(C(=O)N(C)C[C@H]3CCN(C)C3=O)c(F)c2)c1OC (single isomer, unassigned) | 4.00 to 5.30
CNC(=O)c1nnc(NC(=O)C2CC2)cc1Nc1cccc(-c2cnc(C(=O)N(C)Cc3ccn(C)n3)nc2)c1OC | 5.30 to 6.30
CNC(=O)c1nnc(NC(=O)C2CC2)cc1Nc1cccc(-c2ccc(C(=O)N(CCOC)Cc3cccn(C)c3=O)nc2)c1OC | 4.00 to 5.30

Note: attention shifts to another entry.
Input: Data request, read-out pIC50, for CNC(=O)c1nnc(NC(=O)C2CC2)cc1Nc1cccc(-c2ccc(C(=O)N(C)Cc3cc(C#N)n(C)n3)nc2)c1OC
Output: 6.30 to 7.30

====

Target: JAK2 JH2 WT (V536-D812) [W659A, W777A, F794H solubilizing mutations] (Homo sapiens, UniProt O60674, F794H/W659A/W777A)
Construct: **JAK2 JH2 WT (V536-D812) [W659A, W777A, F794H solubilizing mutations]; C-thrombin-avi-His6; thrombin cleavage site (C); His6 (C); purchased Biortus
Sequence (O60674 536-812 W659A/W777A/F794H): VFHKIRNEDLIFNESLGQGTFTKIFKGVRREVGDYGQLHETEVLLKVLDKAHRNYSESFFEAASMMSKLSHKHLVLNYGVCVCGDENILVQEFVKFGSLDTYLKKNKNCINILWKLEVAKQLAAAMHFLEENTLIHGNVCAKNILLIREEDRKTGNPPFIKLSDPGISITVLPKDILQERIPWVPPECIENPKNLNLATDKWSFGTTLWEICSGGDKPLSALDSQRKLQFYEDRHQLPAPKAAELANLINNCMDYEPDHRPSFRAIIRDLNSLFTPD
Assay: Surface Plasmon Resonance (SPR) binding assay, JAK2 JH2 domain
Conditions: SPR, JAK2 JH2 domain
Experimental: Selected compounds of the present disclosure were tested in a Surface Plasmon Resonance (SPR) Assay to measure their binding kinetics and affinity for proteins of interest. Prepare buffer: 50 mM HEPES pH 7.5, 150 mM NaCl, 0.05% (v/v) Tween, and 10% (v/v) glycerol were combined and pH was adjusted to 7.5, then filtered. 5 mM DTT, was added, and buffer without DMSO was reserved for compound resuspension. […]
pKd: −log10 of the molar value.
In this section we review reported pKd values for a set of compounds.

// solved cases for pKd follow
structure.string | assay.result
CNC(=O)c1nnc(NC(=O)C2CC2)cc1Nc1cccc(-c2ccc(C(=O)N(C)Cc3ccnn3C)nc2)c1OC | 8.00 to 11.00
CNC(=O)c1nnc(NC(=O)C2CC2)cc1Nc1cccc(-c2ccc(C(=O)N(C)CC(F)F)nc2)c1OC | 7.30 to 8.00
CNC(=O)c1nnc(NC(=O)C2CC2)cc1Nc1cccc(-c2ccc(C(=O)N(C)Cc3ccn(C)n3)c(C(F)(F)F)c2)c1OC | 8.00 to 11.00

Note: attention shifts to another entry.
Input: Data request, read-out pKd, for CNC(=O)c1nnc(NC(=O)C2CC2)cc1Nc1cccc(-c2ccc(C(=O)N3CCc4cccnc4C3)nc2)c1OC
Output: 7.30 to 8.00

====

In this section we review reported Kd values for a set of molecules.
Biological target: JAK2 JH1 WT (T842-G1132) (Homo sapiens, UniProt O60674)
Construct: *JAK2 JH1 WT (T842-G1132) N-His60-avi-TEV; His6 (N); TEV cleavage site (N); purchased Biortus
Sequence (O60674 842-1132): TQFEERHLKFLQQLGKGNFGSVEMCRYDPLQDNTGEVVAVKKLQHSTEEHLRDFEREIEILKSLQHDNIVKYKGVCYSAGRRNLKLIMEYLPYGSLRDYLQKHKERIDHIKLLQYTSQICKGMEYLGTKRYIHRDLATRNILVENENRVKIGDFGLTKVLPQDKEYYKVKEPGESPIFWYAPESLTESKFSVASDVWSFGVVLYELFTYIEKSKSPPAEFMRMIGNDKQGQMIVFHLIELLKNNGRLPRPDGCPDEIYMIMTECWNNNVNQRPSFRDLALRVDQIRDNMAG
Test: Surface Plasmon Resonance (SPR) binding assay, JAK2 JH1 domain
Conditions: SPR, JAK2 JH1 domain

structure.string | measured.quantity | assay.result
CNC(=O)c1nnc(NC(=O)C2CC2)cc1Nc1cccc(-c2ccc(C(=O)N(Cc3cc(C#N)ccn3)OC)nc2)c1OC | Kd | 5 to 100 µM
CNC(=O)c1nnc(NC(=O)C2CC2)cc1Nc1cccc(-c2ccc(C(=O)N(C)Cc3nncs3)nc2)c1OC | Kd | 5 to 100 µM
CNC(=O)c1nnc(NC(=O)C2CC2)cc1Nc1cccc(-c2nnc(C3CN(Cc4cccc(C)n4)C3)o2)c1OC | Kd | 5 to 100 µM
CNC(=O)c1nnc(NC(=O)C2CC2)cc1Nc1cccc(-c2cnn(C3CN(Cc4ccccn4)C3)c2)c1OC | Kd | 0.5 to 5 µM
CNC(=O)c1nnc(NC(=O)C2CC2)cc1Nc1cccc(-c2cnc(C(=O)N(C)Cc3cc(C#N)ccn3)cc2C)c1OC | Kd | 5 to 100 µM

Input: Data request, read-out Kd, for CNC(=O)c1nnc(NC(=O)C2CC2)cc1Nc1ccc(C)c(-c2cnc(C(=O)N(C)Cc3ccccn3)c(F)c2)c1OC
Output: 5 to 100 µM

Input: // next record CNC(=O)c1nnc(NC(=O)C2CC2)cc1Nc1cccc(-c2cnc(C(=O)N(C)Cc3cc(C#N)ccn3)c(F)c2)c1OC
Output: 5 to 100 µM

====

Tested on: TF1 JAK2 V617F STAT5 reporter
Assay: Cellular TF1 STAT5 assay (luciferase reporter), JAK2 V617F
Format: cell-based
Conditions: TF1 JAK2 V617F, read-out: Cell PD TF1 V617F STAT5 (IC50)
Description: Selected compounds of the present disclosure were tested in a Cellular TF1 STAT3 or STAT5 assay, to measure the degree of JAK2-mediated STAT3 or STAT5 phosphorylation, respectively. TF1 cells (immortalized erythroleukemia line) expressing either wildtype or V617F mutant JAK2 with a luciferase reporter were used. […] Cell plating: Cells were counted using Vi-Cell XR, then cells were spun down and resuspended in growth media to 200,000 cells/ml. […]
In this section we review reported IC50 values for a set of compounds.

Input: Data request, read-out IC50, for CNC(=O)c1nnc(NC(=O)C2CC2)cc1Nc1cccc(-c2cn(C3CN(Cc4ccccn4)C3)nc2C(F)F)c1OC [Compound 165]
Output: 500 to 5000 nM

====

Tested on: TF1 JAK2 V617F STAT5 reporter
Experiment: Cellular TF1 STAT5 assay (luciferase reporter), JAK2 V617F
Type: cell-based
Conditions: TF1 JAK2 V617F, read-out: Cell PD TF1 V617F STAT5 (IC50)
In this section we review reported IC50 values for a set of molecules.

// solved cases for IC50 follow
molecule | IC50
CNC(=O)c1nnc(NC(=O)C2CC2)cc1Nc1cccc(-c2ccc(C(=O)N(C)C[C@@H]3Cc4ccccc4CO3)nc2)c1OC (single isomer, unassigned) [Compound 138] | 5 to 100 µM
CNC(=O)c1nnc(NC(=O)C2CC2)cc1Nc1cccc(-c2ccc(C(=O)N3CCc4cnn(C)c4C3)nc2)c1OC [Compound 120] | 5 to 100 µM
CNC(=O)c1nnc(NC(=O)C2CC2)cc1Nc1ccc(C)c(-c2ccc(C(=O)N(C)Cc3cc(C#N)ccn3)cc2)c1OC [Compound 103] | 0.5 to 5 µM

Input: Data request, read-out IC50, for CNC(=O)c1nnc(NC(=O)C2CC2)cc1Nc1cccc(-c2ccc(C(=O)N(C)Cc3cccn(C)c3=O)cc2)c1OC [Compound 3]
Output: 0.5 to 5 µM

Input: // next record CNC(=O)c1nnc(NC(=O)C2CC2)cc1Nc1cccc(-c2ccc(NC(=O)Cc3cccn(C)c3=O)cc2)c1OC [Compound 2]
Output: 5 to 100 µM

Input: // next record CNC(=O)c1nnc(NC(=O)C2CC2)cc1Nc1cccc(-c2cnn(C3CN(Cc4ccnc(C)n4)C3)c2)c1OC [Compound 148]
Output: 5 to 100 µM

Input: // next record CNC(=O)c1nnc(NC(=O)C2CC2)cc1Nc1cccc(-c2ccc(C(=O)N(C)Cc3ccccc3C(F)(F)F)nc2)c1OC [Compound 52]
Output: 0.5 to 5 µM

Input: // next record CNC(=O)c1nnc(NC(=O)C2CC2)cc1Nc1cccc(-c2ccc(C(=O)NCc3cccn(C)c3=O)nc2)c1OC [Compound 4]
Output: 0.5 to 5 µM

Input: // next record CNC(=O)c1nnc(NC(=O)C2CC2)cc1Nc1cccc(-c2cnn(C3CN([C@@H](C)c4ccccn4)C3)c2)c1OC (single isomer, unassigned) [Compound 162]
Output: 0.5 to 5 µM

Input: // next record CNC(=O)c1nnc(NC(=O)C2CC2)cc1Nc1cccc(-c2ccc(C(=O)N(C)Cc3cc(C#N)ccn3)cn2)c1OC [Compound 55]
Output: 0.5 to 5 µM

Input: // next record CNC(=O)c1nnc(NC(=O)C2CC2)cc1Nc1cccc(-c2ccc(C(=O)N(C)Cc3cc(C#N)ccn3)c(C#N)c2)c1OC [Compound 118]
Output: 0.5 to 5 µM

====

In this section we review reported pKd values for a set of molecules.
Target: JAK2 JH2 WT (V536-D812) [W659A, W777A, F794H solubilizing mutations] (Homo sapiens, UniProt O60674, F794H/W659A/W777A)
Construct: **JAK2 JH2 WT (V536-D812) [W659A, W777A, F794H solubilizing mutations]; C-thrombin-avi-His6; thrombin cleavage site (C); His6 (C); purchased Biortus
Assay: Surface Plasmon Resonance (SPR) binding assay, JAK2 JH2 domain
Conditions: SPR, JAK2 JH2 domain
pKd: −log10 of the molar value.

molecule | measured.quantity | assay.result
CNC(=O)c1nnc(NC(=O)C2CC2)cc1Nc1cccc(-c2ccc(C(=O)N(C)[C@@H](C)c3ccn(C)n3)nc2)c1OC (single isomer, unassigned) [Compound 160] | pKd | 8.00 to 11.00

Input: Data request, read-out pKd, for CNC(=O)c1nnc(NC(=O)C2CC2)cc1Nc1cccc(-c2ccc(C(=O)N(C)Cc3ccn(C)n3)nn2)c1OC [Compound 76]
Output: 8.00 to 11.00

Input: // next record CNC(=O)c1nnc(NC(=O)C2CC2)cc1Nc1cccc(-c2cc(C3CN(Cc4cnn(C)c4)C3)n(C)n2)c1OC [Compound 187]
Output: 6.30 to 7.30
